Target: B-type monoamine oxidase (Mus musculus, UniProt Q8BW75)
Assay: Monoamine oxidase-inhibitory activity, B-type (crude mitochondria of mouse brain, 14C-2-phenylethylamine substrate)
Format: biochemical
Conditions: 14C-PEA 20 μM, pH 7.4, 38° C., 20 min preincubation
Structures can show the parent of a compound that is named as a salt.
READOUT_TYPE: pIC50
// scale note: pIC50 = -log10(conc_M); give the bare number

Solved entries (count: 3):
NCCSc1noc2ccc(F)cc12 [Example 26, hydrochloride] ... 8.57
NCCOc1noc2ncccc12 [10(e), Dihydrochloride] ... 7.99
N#Cc1cccc2onc(OCCN)c12 [Example 24, hydrochloride] ... 8.17

Consider now this further molecule.
pIC50 lookup needed for NCCOc1noc2ccc(F)cc12 [Example 5, hydrochloride] , thanks. 8.87

###

Biological target: UniProt:Q8BW75
Test: Monoamine oxidase-inhibitory activity, B-type (crude mitochondria of mouse brain, 14C-2-phenylethylamine substrate)
Assay type: biochemical
Conditions: 14C-PEA 20 μM, pH 7.4, 38° C., 20 min preincubation
Counter-ions that a name gives are not always drawn.
READOUT_TYPE: log10 IC50 (log10 of the value in nM)
// stored as log10 of IC50 expressed in nM

NCCOc1noc2c(Cl)cccc12 [Example 9, Hydrochloride] ... 1.30
NCCOc1noc2ccc(OC(F)F)cc12 [Example 44, hydrochloride] ... 0.78
Cc1cccc2c(OCCN)noc12 [Example 13, Hydrochloride] ... 1.44
NCCOc1noc2ccc([N+](=O)[O-])cc12 [Example 8, Hydrochloride] ... -0.25
CSc1c(F)ccc2onc(OCCN)c12 [Example 21, Hydrochloride] ... 0.67
NCCOc1noc2ccc(Cl)cc12 [Example 1, hydrochloride] ... -0.43
NCCOc1noc2c(Cl)cc(Cl)cc12 [Example 12, Hydrochloride] ... 1.42
NCCOc1noc2ccc(Br)cc12 [Example 15, Hydrochloride] ... -0.49
NCCSc1noc2ccc([N+](=O)[O-])cc12 [Example 35, hydrochloride] ... 0.95
Cc1ccc2onc(SCCN)c2c1 [Example 34, hydrochloride] ... 0.34

log10 IC50 lookup needed for Cc1cc(Cl)cc2c(SCCN)noc12 [Example 56, hydrochloride] , thanks. 0.82

log10 IC50 lookup needed for COc1ccc2onc(OCCN)c2c1 [Example 6, hydrochloride] , thanks. 0.75

log10 IC50 lookup needed for NCCSc1noc2ccc(Cl)cc12 [Example 38, hydrochloride] , thanks. 0.47

###

Target: B-type monoamine oxidase (Mus musculus, UniProt Q8BW75)
Sequence (Q8BW75 1-520): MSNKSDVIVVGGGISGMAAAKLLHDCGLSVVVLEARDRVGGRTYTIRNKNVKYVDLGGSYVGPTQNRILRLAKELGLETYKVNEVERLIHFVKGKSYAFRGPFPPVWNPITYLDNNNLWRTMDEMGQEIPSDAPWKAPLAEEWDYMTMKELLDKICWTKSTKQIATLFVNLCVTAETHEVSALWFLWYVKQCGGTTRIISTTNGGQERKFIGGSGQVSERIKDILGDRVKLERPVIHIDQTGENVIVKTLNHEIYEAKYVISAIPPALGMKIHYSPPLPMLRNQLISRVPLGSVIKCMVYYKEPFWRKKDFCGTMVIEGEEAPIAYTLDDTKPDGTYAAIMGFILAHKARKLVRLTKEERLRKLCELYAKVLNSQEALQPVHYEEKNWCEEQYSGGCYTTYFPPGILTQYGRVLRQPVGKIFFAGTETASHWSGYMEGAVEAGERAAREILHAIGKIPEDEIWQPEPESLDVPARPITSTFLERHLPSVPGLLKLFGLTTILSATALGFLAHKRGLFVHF
Experiment: Monoamine oxidase-inhibitory activity, B-type (crude mitochondria of mouse brain, 14C-2-phenylethylamine substrate)
Assay type: biochemical
Settings: 14C-PEA 20 μM, pH 7.4, 38° C., reference compounds A and B
READOUT_TYPE: IC50 (µM)
API: value field is a number in µM; no unit string.

CN(C)CCOc1noc2ccccc12 ... 4.7

Consider now this further molecule.
What value of IC50 on B-type monoamine oxidase (Mus musculus, UniProt Q8BW75) does CNCCOc1noc2ccccc12 [Compound A, reference compound] have? 2.35

###

Biological target: B-type monoamine oxidase (Mus musculus, UniProt Q8BW75)
Assay: Monoamine oxidase-inhibitory activity, B-type (crude mitochondria of mouse brain, 14C-2-phenylethylamine substrate)
Type: biochemical
Conditions: 14C-PEA 20 μM, pH 7.4, 38° C., 20 min preincubation
Counter-ions that a name gives are not always drawn.
Checkbox rule: IC50 lower than 10 nM = YES; IC50 not lower than 10 nM = NO.

Determine whether this molecule shows IC50 lower than 10 nM (ties excluded): COc1ccc2onc(SCCN)c2c1 [Example 33, hydrochloride] YES

Determine whether this molecule shows IC50 lower than 10 nM (ties excluded): NCCOc1noc2ccccc12 [Example 2, hydrochloride] YES

Determine whether this molecule shows IC50 lower than 10 nM (ties excluded): Cc1ccc2c(OCCN)noc2c1 [Example 14, Hydrochloride] NO

Determine whether this molecule shows IC50 lower than 10 nM (ties excluded): Cc1c(F)ccc2onc(OCCN)c12 [Example 17, Hydrochloride] YES

Determine whether this molecule shows IC50 lower than 10 nM (ties excluded): NCCOc1noc2ncccc12 [10(f), Hydrochloride] NO

Determine whether this molecule shows IC50 lower than 10 nM (ties excluded): COC(=O)c1ccc2onc(OCCN)c2c1 [Example 42, hydrochloride] NO

Determine whether this molecule shows IC50 lower than 10 nM (ties excluded): NCCOc1noc2cc(Cl)ccc12 [Example 11, Hydrochloride] YES

Determine whether this molecule shows IC50 lower than 10 nM (ties excluded): Cc1ccc2onc(OCCN)c2c1 [Example 7, Hydrochloride] YES
